// provenance: the NIST ThermoML archive (doi:10.1021/je0602925)

- assay_overview: activity coefficient (dimensionless); of the first substance listed, at infinite dilution; xn = mol fraction of the nth substance listed
- experimental_context: 318.15 K; Liquid; Chromatography; x1 = 0
value_kind: activity coefficient

{"compound": "CCCCCCC [heptane] + CCCCCCCCCCCCCC[P+](CCCCCC)(CCCCCC)CCCCCC.[Cl-]", "reported_measurement": 0.803}
{"compound": "C#CCCCCCC [1-octyne] + CCCCCCCCCCCCCC[P+](CCCCCC)(CCCCCC)CCCCCC.[Cl-]", "reported_measurement": 0.514}
{"compound": "CCCCCC [hexane] + CCCCCCCCCCCCCC[P+](CCCCCC)(CCCCCC)CCCCCC.O=S(=O)([N-]S(=O)(=O)C(F)(F)F)C(F)(F)F", "reported_measurement": 0.751}
{"compound": "C#CCCCCC [1-heptyne] + CCCCCCCCCCCCCC[P+](CCCCCC)(CCCCCC)CCCCCC.[Cl-]", "reported_measurement": 0.494}
{"compound": "CO [methanol] + CCCCCCCCCCCCCC[P+](CCCCCC)(CCCCCC)CCCCCC.[Cl-]", "reported_measurement": 0.879}
